Target: SARS-CoV-2 (WT) Spike RBD Protein (His Tag) (SARS-CoV-2 ancestral (Wuhan-Hu-1), UniProt P0DTC2)

- binder: "BD55-5198 (antibody, V domains shown) VH: EVQLVESGGGVVKPGGSLRLSCAASGFTFSAFAMHWVRQVPGKGLEYISLISEDGYSTFYAASVTGRFTLSRDNNKKSLYLQMNSLRSEDTAFYYCAKDIGGTVAGTGADFWGQGILVTVSS VL: QSVLTQPPSVSGAPGQKVTISCTGDSSNIGAGYTVHWYQQLPGTAPKLLIYGDNNRPSGVPDRFSGSKSGTSASLAITGLQAEDEADYYCQSYDTSLSGLWVFGGGTRLTVL"
  binding result: "binds"
- binder: "BD55-5167 (antibody, V domains shown) VH: QITLKESGPTLVKPTQTLTLTCTFSGFSLTTTGMGVGWIRQPPGKAPEWLALIYWLDDTRYSPSLESRLTLTKDTSKNLVVLTMTNMDPVDTATYYCAHLYYDSSSGYDTTGPDAFDFWGQGTMVTVSP VL: AIQITQSPSSLSASPGDRVTITCRASQGISSFLAWYQQRRGRAPKLLIHSASTLQNGVPSRISGSGSGTDFTLTITGLQSEDFATYYCQQYYSYPPTFGHGTKVEF"
  binding result: "binds"
- binder: "BD55-5233 (antibody, V domains shown) VH: EVQLLESGGGLVQPGGSLRLSCAASGFTFSRSSMGWVRQAPGKGLEWVSTISEDGYTPYYADSVKGRFTISRDNSENRLFLQMNGLRAEDTALYYCAKDVDFDKWRQTCFDSWGQGALVTVSS VL: QSVLTQPPSVSGAPGQRVTISCTGSNSNIGAGYDVHWYQQLPGTAPKLLIYGNNNRPSGVPDRFSGSKSGTSASLAITGLQAEDEADYYCQSYDSSLNVLYVFGTGTRVTVL"
  binding result: "binds"
